molecular target: CYP3A4 (Homo sapiens (Human), UniProt P08684); experiment: Mechanism based inhibition of CYP3A4 assay (MBI 3A4); format: in vitro ADME; settings: human liver microsomes, 25 uM compound; hydroxy-midazolam formation after 30 min preincubation relative to 0 min
Sequence (P08684 whole entry): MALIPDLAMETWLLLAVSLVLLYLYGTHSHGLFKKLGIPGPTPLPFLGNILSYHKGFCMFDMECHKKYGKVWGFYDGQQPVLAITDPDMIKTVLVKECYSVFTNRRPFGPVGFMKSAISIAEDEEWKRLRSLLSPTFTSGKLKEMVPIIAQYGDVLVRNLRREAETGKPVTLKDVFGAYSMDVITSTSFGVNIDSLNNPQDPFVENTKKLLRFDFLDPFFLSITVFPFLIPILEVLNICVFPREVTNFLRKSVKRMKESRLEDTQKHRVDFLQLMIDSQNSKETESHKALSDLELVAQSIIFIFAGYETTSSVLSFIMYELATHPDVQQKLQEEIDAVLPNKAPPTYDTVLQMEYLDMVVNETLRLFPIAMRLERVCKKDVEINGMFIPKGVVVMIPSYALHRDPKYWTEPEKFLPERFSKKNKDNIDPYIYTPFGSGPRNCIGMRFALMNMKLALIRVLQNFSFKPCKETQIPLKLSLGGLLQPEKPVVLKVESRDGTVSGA
Assay Metric: MBI 3A4 (%)

>>> print(df.to_string())
                           structure_string  obs_value
0  C[C@H](Oc1nc(-c2onc3c2CCC[C@@]32CCCc3sc(N)c(C#N)c32)nc2c1n(C)c(=O)n2[C@@H]1CCOC1)[C@@H]1CCCN1C         92
1  C[C@H](Oc1nc(-c2onc3c2CCC[C@@]32CCCc3sc(N)c(C#N)c32)nc2c1n(C)c(=O)n2[C@@H]1CCOC1)C12CCCN1CCC2         60
2  C[C@H](Oc1nc(-c2onc3c2CCC[C@@]32CCCc3sc(N)c(C#N)c32)nc2c1n(C)c(=O)n2[C@@H]1CCOC1)[C@@H]1CC[C@H](C)N1C         83
3  C[C@H](Oc1nc(-c2onc3c2CCC[C@@]32CCCc3sc(N)c(C#N)c32)nc2c1n(C)c(=O)n2[C@H]1CCOC1)[C@@H]1CCCN1C         83
4  C[C@H](Oc1nc(-c2noc3c2CCC[C@@]32CCCc3sc(N)c(C#N)c32)nc2c1COC[C@]21CCOC1)[C@@H]1CCCN1C         85

I. C[C@H](Oc1nc(-c2noc3c2CCC[C@@]32CCCc3sc(N)c(C#N)c32)nc2c1CCO[C@]21CCOC1)[C@@H]1CCCN1C
II. C[C@H](Oc1nc(-c2onc3c2CCC[C@@]32CCCc3sc(N)c(C#N)c32)nc2c1[nH]c(=O)n2[C@@H]1CCOC1)[C@@H]1CCCN1C
(Q) // pick min by MBI 3A4: I , II Reply with the label of the item you choose.
(A) II

###

target: KRAS (G12D)::SOS1 protein-protein interaction (Homo sapiens (Human), UniProt P01116, G12D); experiment: KRAS::SOS1 AlphaScreen binding assay (KRAS G12D); conditions: GDP
Sequence (P01116 other isoform, or with tags, fused parts or gaps G12D): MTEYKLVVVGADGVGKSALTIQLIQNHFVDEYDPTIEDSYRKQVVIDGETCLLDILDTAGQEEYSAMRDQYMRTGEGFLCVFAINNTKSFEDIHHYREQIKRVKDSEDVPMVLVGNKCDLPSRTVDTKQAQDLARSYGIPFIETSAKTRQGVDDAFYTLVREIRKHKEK
Assay Metric: IC50 (nM)

The cases that follow already have their IC50 on record.
>>> print(df.to_string())
                                   molecule  assay_metric  obs_value
0  C[C@H](Oc1nc(-c2onc3c2CCC[C@@]32CCCc3sc(N)c(C#N)c32)nc2c1n(C)c(=O)n2[C@H]1CO[C@@H](C)C1)[C@@H]1CC[C@H](C)N1C          IC50          4
1  C[C@H](Oc1nc(-c2onc3c2CCC[C@@]32CCCc3sc(N)c(C#N)c32)nc2c1n(C)c(=O)n2C1COC1)[C@@H]1CCCN1C          IC50          3
2  C[C@H](Oc1nc(-c2onc3c2CCC[C@@]32CCCc3sc(N)c(C#N)c32)nc2c1n(C)c(=O)n2[C@@H]1CC2CCC1O2)[C@@H]1CCCN1C (stereo partly drawn)          IC50          8
3  C[C@H](Oc1nc(-c2noc3c2CCC[C@@]32CCCc3sc(N)c(C#N)c32)nc2c1CCC21CCOC1)[C@@H]1CCCN1C (stereo partly drawn)          IC50          2
4  C[C@H](Oc1nc(-c2onc3c2CCC[C@@]32CCCc3sc(N)c(C#N)c32)nc2c1n(C)c(=O)n2[C@@H]1CCCOC1)[C@@H]1CCCN1C          IC50          1
5  C[C@H](Oc1nc(-c2onc3c2CCC[C@@]32CCCc3sc(N)c(C#N)c32)nc2c1[nH]c(=O)n2[C@@H]1CCCOC1)[C@@H]1CCCN1C          IC50          2
6  C[C@H](Oc1nc(-c2noc3c2CCC[C@@]32CCCc3sc(N)c(C#N)c32)nc2c1CCO[C@]21CCOC1)[C@@H]1CCCN1C          IC50          1
7  CO[C@@H]1C[C@@H]([C@H](C)Oc2nc(-c3onc4c3CCC[C@@]43CCCc4sc(N)c(C#N)c43)nc3c2n(C)c(=O)n3[C@@H]2CCCOC2)N(C)C1          IC50          1

a. CO[C@H]1CCN(C)[C@@H]1[C@H](C)Oc1nc(-c2noc3c2CCC[C@@]32CCCc3sc(N)c(C#N)c32)nc2c1n(C)c(=O)n2[C@@H]1CCOC1
b. CC(C)n1c(=O)n([C@@H]2CCOC2)c2nc(-c3onc4c3CCC[C@@]43CCCc4sc(N)c(C#N)c43)nc(O[C@@H](C)[C@@H]3CCCN3C)c21
(Q) Compare a and b and name the one whose reported IC50 is smaller. Please reply using the label of the selected record.
(A) a

A. C[C@H](Oc1nc(-c2onc3c2CCC[C@@]32CCCc3sc(N)c(C#N)c32)nc2c1n(C)c(=O)n2[C@@H]1CCOC1)[C@@H]1[C@@H](F)CCN1C
B. C[C@H](Oc1nc(-c2onc3c2CCC[C@@]32CCCc3sc(N)c(C#N)c32)nc2c1N(C)C(=O)CN2[C@@H]1CCOC1)[C@@H]1CCCN1C
(Q) Given A and B , report the one with the higher recorded IC50. Choose, then provide that item's label.
(A) B
(B: 8 nM, A: 2 nM)

###

system: SK-CO-1 cells; test: SK-CO-1 CTG proliferation assay (120 h) (CRC, G12V); assay type: cell-based; details: Homo sapiens
Assay Metric: IC50 (nM)

>>> df
                                   compound  target_entity  obs_value
0  C[C@H](Oc1nc(-c2onc3c2CCC[C@@]32CCCc3sc(N)c(C#N)c32)nc2c1n(C)c(=O)n2[C@@H]1CCOC1)[C@@H]1CCCN1C [I-20]  SK-CO-1 cells          3

A. CO[C@H]1C[C@@H]([C@H](C)Oc2nc(-c3onc4c3CCC[C@@]43CCCc4sc(N)c(C#N)c43)nc3c2n(C)c(=O)n3[C@@H]2CCOC2)N(C)C1 [I-2]
B. C[C@H](Oc1nc(-c2noc3c2CCC[C@@]32CCCc3sc(N)c(C#N)c32)nc2c1CCC21CCOC1)[C@@H]1CCCN1C (stereo partly drawn) [II-18]
(Q) Compare the recorded IC50 of A and B ; state which is larger. Provide the label of your selected option as the answer.
(A) B
(B: 79 nM, A: 43 nM)

###

tested on: NCI-H358 cells; test: NCI-H358 CTG proliferation assay (120 h) (NSCLC, G12C); assay type: cell-based; conditions: Homo sapiens
pIC50: −log10 of the molar value.
Assay Metric: pIC50

I. CCn1c(=O)n([C@@H]2CCCOC2)c2nc(-c3onc4c3CCC[C@@]43CCCc4sc(N)c(C#N)c43)nc(O[C@@H](C)C34CCCN3CCC4)c21 [I-36]
II. CO[C@H]1CCN(C)[C@@H]1[C@H](C)Oc1nc(-c2onc3c2CCC[C@@]32CCCc3sc(N)c(C#N)c32)nc2c1n(C)c(=O)n2[C@@H]1CCOC1 [I-23]
III. C[C@H](Oc1nc(-c2onc3c2CCC[C@@]32CCCc3sc(N)c(C#N)c32)nc2c1n(C)c(=O)n2[C@@H]1CC2CCC1O2)[C@@H]1CCCN1C (stereo partly drawn) [I-18]
(Q) Order by pIC50, ascending. Your reply should list the labels following the order given in the request.
(A) III, I, II

1. C[C@H](Oc1nc(-c2onc3c2CCC[C@@]32CCCc3sc(N)c(C#N)c32)nc2c1n(C)c(=O)n2[C@H]1CCC[C@@H]1O)[C@@H]1CCCN1C [I-19]
2. CO[C@H]1C[C@@H](n2c(=O)n(C)c3c(O[C@@H](C)[C@@H]4CCCN4C)nc(-c4onc5c4CCC[C@@]54CCCc5sc(N)c(C#N)c54)nc32)C1 [I-31]
3. C[C@H](Oc1nc(-c2noc3c2CCC[C@@]32CCCc3sc(N)c(C#N)c32)nc2c1CNC[C@]21CCOC1)[C@@H]1CCCN1C [II-15]
(Q) Sort the molecules on pIC50; start with the lowest figure. Use the labels to give the ranking in the order requested.
(A) 1, 2, 3
(1: 6.70, 2: 7.22, 3: 9.00)

###

target: KRAS (G12D)::SOS1 protein-protein interaction (Homo sapiens (Human), UniProt P01116, G12D); experiment: KRAS::SOS1 AlphaScreen binding assay (KRAS G12D); details: GDP
Assay Metric: IC50 (nM)

Worked set:
>>> print(df.to_string())
                                   compound  assay_metric  obs_value
0  CO[C@H]1CCN(C)[C@@H]1[C@H](C)Oc1nc(-c2onc3c2CCC[C@@]32CCCc3sc(N)c(C#N)c32)nc2c1n(C)c(=O)n2[C@H]1COC[C@@H](C)C1          IC50          2
1  C[C@H](Oc1nc(-c2onc3c2CCC[C@@]32CCCc3sc(N)c(C#N)c32)nc2c1n(C)c(=O)n2[C@H]1CC2CCC1O2)[C@@H]1CCCN1C (stereo partly drawn)          IC50          2
2  CCn1c(=O)n([C@@H]2CCCOC2)c2nc(-c3onc4c3CCC[C@@]43CCCc4sc(N)c(C#N)c43)nc(O[C@@H](C)[C@@H]3CCCN3C)c21          IC50          2

I. C[C@H](Oc1nc(-c2onc3c2CCC[C@@]32CCCc3sc(N)c(C#N)c32)nc2c1n(C)c(=O)n2[C@@H]1CCOC1)[C@@H]1C[C@@H](F)CN1C
II. C[C@H](Oc1nc(-c2onc3c2CCC[C@@]32CCCc3sc(N)c(C#N)c32)nc2c1n(C)c(=O)n2[C@H]1CCCOC1)[C@@H]1CCCN1C
III. CO[C@@H]1C[C@@H]([C@H](C)Oc2nc(-c3onc4c3CCC[C@@]43CCCc4sc(N)c(C#N)c43)nc3c2n(C)c(=O)n3[C@H]2COC[C@@H](C)C2)N(C)C1
(Q) Put the entries in order of IC50, starting with the largest number. Submit the labels in the order that the ranking request calls for.
(A) II, I, III
